# TARGET SYSTEM: HLA A*0201 (Homo sapiens, UniProt P04439, D140Y/D185E/D98H/E176V/E277Q/G131W/G231S/I119V/I121R/I166T/I218V/L300P/L318F/N151K/N90K/P208A/P217A/Q86G/Q94H/R138H/R169H/T345S)
# CONDITION DETAILS: positional scanning combinatorial 9-mer library; normalized to 1.0 for the best residue at each position
Entries and their measured Normalized average relative binding affinity (ARB), HLA A*0201 follow.
Please reply with the value in numeric form only.

>>> df
                sequence  reported_value
0  XXEXXXXXX [3064.0044]           0.037

Next, consider the following sequence.
I am curious: what Normalized average relative binding affinity (ARB), HLA A*0201 value has been reported for XRXXXXXXX [3064.0035] ?
0.0016

----------
Here the recorded pIC50 is given for each entry.
# TARGET SYSTEM: HLA A*3001 (Homo sapiens, UniProt P04439, D140H/D185E/E176W/F33S/G80R/H175R/K168Q/R138E/R41S)
# METHOD NOTES: biochemical
Where a SMILES comes first, the peptide text is derived from it.
Formally, pIC50 is defined as -log10 of the concentration c, with c in mol/L.

COMPOUND	REPORTED VALUE
CC(C)C[C@H](NC(=O)[C@H](CC(N)=O)NC(=O)[C@H](CC(C)C)NC(=O)[C@H](Cc1c[nH]c2ccccc12)NC(=O)[C@H](CO)NC(=O)[C@H](CC(N)=O)NC(=O)[C@H](CCCCN)NC(=O)[C@H](C)NC(=O)[C@@H](N)CO)C(=O)O [3102.0164] (H-SAKNSWLNL-OH)	9.24
CC[C@H](C)[C@H](NC(=O)[C@H](CCCCN)NC(=O)[C@@H](NC(=O)[C@H](CO)NC(=O)[C@H](CCC(N)=O)NC(=O)[C@H](CC(=O)O)NC(=O)[C@H](CCCNC(=N)N)NC(=O)[C@H](CC(C)C)NC(=O)[C@@H](N)Cc1c[nH]cn1)[C@@H](C)CC)C(=O)O [3102.0041] (H-HLRDQSIKI-OH)	7.82
CSCC[C@H](N)C(=O)N[C@H](C(=O)N[C@@H](CCCNC(=N)N)C(=O)N[C@@H](CC(C)C)C(=O)N[C@H](C(=O)N[C@H](C(=O)N[C@@H](CCC(N)=O)C(=O)NCC(=O)N[C@@H](CC(C)C)C(=O)O)[C@@H](C)O)[C@@H](C)O)C(C)C [3102.0012] (H-MVRLTTQGL-OH)	8.08

Record request: pIC50 value, item C[C@H](N)C(=O)N[C@H](C(=O)N[C@@H](C)C(=O)N[C@@H](CCCNC(=N)N)C(=O)N[C@@H](CO)C(=O)N[C@@H](CO)C(=O)N1CCC[C@H]1C(=O)N[C@@H](CCC(=O)O)C(=O)N[C@@H](CCCCN)C(=O)O)[C@@H](C)O [3102.0148] (H-ATARSSPEK-OH)
9.24

----------
# TARGET SYSTEM: HLA A*3201 (Homo sapiens, UniProt P04439, A270S/D101S/D185E/E176V/E277Q/F133L/G103R/G107R/G231S/H175R/I121M/I218V/I322F/K168Q/L105A/L300P/L318F/M331R/P208A/P217A/Q94H/R106L/R138Q/S129P/T104I/T323A/T345S/V100E/V321M/V358M)
# METHOD NOTES: biochemical
Where a SMILES comes first, the peptide text is derived from it.
Each entry below lists one item and its recorded pIC50 value.
// field semantics: pIC50 = negative decimal log of concentration (mol/L)

Recorded pIC50, per entry:
COMPOUND	REPORTED VALUE
CSCC[C@H](N)C(=O)N[C@H](C(=O)N[C@@H](CS)C(=O)NCC(=O)N[C@@H](CCC(N)=O)C(=O)N1CCC[C@H]1C(=O)N[C@@H](CC(C)C)C(=O)N[C@@H](CO)C(=O)N[C@@H](CC(C)C)C(=O)O)[C@@H](C)O [3102.0339] (H-MTCGQPLSL-OH)	8.25
CC(C)C[C@H](NC(=O)[C@@H](NC(=O)[C@@H](NC(=O)[C@@H](NC(=O)[C@@H](NC(=O)[C@@H](NC(=O)[C@H](CC(C)C)NC(=O)[C@@H](NC(=O)[C@@H](N)CCCCN)[C@@H](C)O)[C@@H](C)O)[C@@H](C)O)[C@@H](C)O)C(C)C)C(C)C)C(=O)O [3102.0381] (H-KTLTTTVVL-OH)	8.03
CC[C@H](C)[C@H](N)C(=O)N[C@H](C(=O)N[C@@H](Cc1ccccc1)C(=O)N[C@@H](Cc1ccccc1)C(=O)N[C@H](C(=O)N[C@H](C(=O)N[C@@H](CC(C)C)C(=O)N[C@H](C(=O)N[C@@H](CC(C)C)C(=O)O)[C@@H](C)CC)C(C)C)[C@@H](C)CC)[C@@H](C)CC [3102.0436] (H-IIFFIVLIL-OH)	7.92
CC[C@H](C)[C@H](NC(=O)CNC(=O)[C@@H](NC(=O)[C@@H](NC(=O)[C@H](CC(C)C)NC(=O)CNC(=O)[C@H](CS)NC(=O)[C@@H](NC(=O)[C@@H](N)C(C)C)[C@@H](C)CC)[C@@H](C)CC)C(C)C)C(=O)O [3102.0356] (H-VICGLIVGI-OH)	7.59

GET /values?readout=pIC50&item= CC[C@H](C)[C@H](NC(=O)[C@@H]1CCCN1C(=O)[C@@H](NC(=O)[C@H](CO)NC(=O)[C@H](CC(N)=O)NC(=O)[C@H](Cc1ccc(O)cc1)NC(=O)[C@H](CO)NC(=O)[C@H](CCC(N)=O)NC(=O)[C@@H](N)CCSC)C(C)C)C(=O)O [3102.0353] (H-MQSYNSVPI-OH)
8.60

What does the data say about its pIC50? Entry: CC[C@H](C)[C@H](N)C(=O)N[C@H](C(=O)N[C@@H](Cc1ccccc1)C(=O)N[C@@H](CC(=O)O)C(=O)N[C@H](C(=O)N[C@@H](Cc1ccc(O)cc1)C(=O)N[C@@H](Cc1ccccc1)C(=O)N[C@@H](C)C(=O)N[C@H](C(=O)O)[C@@H](C)CC)[C@@H](C)CC)[C@@H](C)CC [3102.0346] (H-IIFDIYFAI-OH)
9.03

Quick one: pIC50 for CC[C@H](C)[C@H](NC(=O)[C@H](CCSC)NC(=O)[C@H](CC(=O)O)NC(=O)[C@H](CCSC)NC(=O)[C@@H](N)CC(C)C)C(=O)N[C@H](C(=O)N[C@@H](CC(C)C)C(=O)N[C@@H](CO)C(=O)N[C@@H](CC(C)C)C(=O)O)[C@@H](C)O [3102.0448] (H-LMDMITLSL-OH) ?
7.52

----------
# TARGET SYSTEM: HLA B*1501 (Homo sapiens, UniProt P01889, A329T/A93T/A95T/C349S/D201E/D98Y/E187L/E204Q/E69M/E70A/K202T/N87E/Q94N/R155S/R180W/S121R/S35A/S48A/V306I/V36M/Y140S/Y91S)
# METHOD NOTES: biochemical
Where a SMILES comes first, the peptide text is derived from it.
RECORDED METRIC: pIC50
// pIC50: -log10(molar conc.)

Example entries and their recorded answers appear below.
COMPOUND	RECORDED METRIC	REPORTED VALUE
CC[C@H](C)[C@H](NC(=O)[C@H](CC(C)C)NC(=O)[C@@H](N)CC(N)=O)C(=O)N[C@H](C(=O)N[C@@H](CC(C)C)C(=O)N[C@@H](C)C(=O)N[C@H](C(=O)N[C@@H](CO)C(=O)N[C@@H](Cc1ccccc1)C(=O)O)C(C)C)[C@@H](C)O [3102.0798] (H-NLITLAVSF-OH)	pIC50	7.09
CC[C@H](C)[C@H](NC(=O)[C@@H](NC(=O)[C@H](Cc1ccccc1)NC(=O)[C@H](CCCCN)NC(=O)[C@H](CCC(N)=O)NC(=O)[C@@H](N)CCSC)[C@@H](C)O)C(=O)N[C@@H](CC(C)C)C(=O)N[C@@H](CCC(=O)O)C(=O)N[C@@H](Cc1ccc(O)cc1)C(=O)O [3102.0953] (H-MQKFTILEY-OH)	pIC50	8.00

Alright, here's another compound for you.
Need pIC50 of CC[C@H](C)[C@H](NC(=O)[C@H](CCSC)NC(=O)[C@@H](N)CO)C(=O)N[C@@H](CC(N)=O)C(=O)N[C@@H](Cc1ccc(O)cc1)C(=O)N[C@@H](Cc1ccc(O)cc1)C(=O)N[C@@H](CC(N)=O)C(=O)N[C@@H](CCC(=O)O)C(=O)N[C@@H](CCSC)C(=O)O [3102.0985] (H-SMINYYNEM-OH) , thanks.
8.64
